assay: Rodent pharmacokinetic study; format: in vivo, Male Wistar rats; details: male, Wistar; rat, oral 3 mg/kg, plasma
observationType: AUC(0-t) (ng·h/mL)

Consider the following illustrative entries.
smilesText	measurementUnit	AUC(0-t)
Cc1c(Cc2ccc(-c3cnn(C)c3)cc2F)cc(C(=O)N[C@H]2CCCC[C@@H]2O)c2ncccc12	ng·h/mL	40300
Cc1c(Cc2ccnc(Cl)c2)cc(C(=O)N[C@H]2CCCC[C@@H]2O)c2ncccc12	ng·h/mL	360

P: Cc1c(Cc2ccc(-c3cnn(C)c3)cc2)cc(C(=O)N[C@H]2CCCC[C@@H]2O)c2ncccc12
Q: Cc1c(Cc2cccc(F)c2F)cc(C(=O)N[C@H]2CCCC[C@@H]2O)c2ncccc12
Request: I'd appreciate it if you could identify which of P and Q has the greater AUC(0-t). Reply briefly: the label of your chosen item.
Result: P

###

Biological target: recombinant human Muscarinic M1 receptor (Homo sapiens, UniProt P11229)
Sequence (P11229 1-460): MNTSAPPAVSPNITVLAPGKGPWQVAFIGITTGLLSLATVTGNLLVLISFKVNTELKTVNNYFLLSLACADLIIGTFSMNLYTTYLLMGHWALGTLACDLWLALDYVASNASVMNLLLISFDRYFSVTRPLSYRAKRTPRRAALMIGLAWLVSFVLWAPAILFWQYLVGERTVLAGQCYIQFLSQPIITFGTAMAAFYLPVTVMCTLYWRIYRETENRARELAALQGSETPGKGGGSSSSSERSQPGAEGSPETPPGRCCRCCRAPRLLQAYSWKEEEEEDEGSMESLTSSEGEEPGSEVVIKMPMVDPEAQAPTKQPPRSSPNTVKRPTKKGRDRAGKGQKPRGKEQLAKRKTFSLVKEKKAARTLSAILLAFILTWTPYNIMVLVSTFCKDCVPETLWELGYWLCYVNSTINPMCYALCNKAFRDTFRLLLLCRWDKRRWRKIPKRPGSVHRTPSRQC
Experiment: Allosteric potency EC50 for Muscarinic M1 receptor, CHO pCRE-Luc reporter cell-based assay with EC20 of acetylcholine
Details: CHO cells, human M1, luciferase reporter, in presence of EC20 of acetylcholine, 4 h
observationType: EC50 (nM)

smilesText	systemTested	measurementUnit	testResult
Cn1cc(-c2ccc(Cc3cc(C(=O)N[C@H]4CCCC[C@@H]4O)c4[nH]cnc4c3)c(F)c2F)cn1	recombinant human Muscarinic M1 receptor (Homo sapiens, UniProt P11229)	nM	597
O=C(N[C@H]1CCCC[C@@H]1O)c1cc(Cc2ccc(-c3cscn3)cc2)cn2ccnc12	recombinant human Muscarinic M1 receptor (Homo sapiens, UniProt P11229)	nM	308

P: Cc1c(Cc2ccc(-n3cccn3)cc2)cc(C(=O)N[C@H]2CCCC[C@@H]2O)c2c1NCCO2
Q: Cc1c(Cc2ccc(-c3cnn(C)c3)cc2)cc(C(=O)N[C@H]2CCCC[C@@H]2O)c2nccn12
Request: Which record shows the lower EC50: the first, P , or the second, Q ? Reply briefly: the label of your chosen item.
Result: Q
(Q: 248 nM, P: 1120 nM)

A: Cc1nc2c(C(=O)N[C@H]3CCCC[C@@H]3O)cc(Cc3ccc(-c4cnn(C)c4)cc3)c(C)c2[nH]1
B: O=C(N[C@H]1CCCC[C@@H]1O)c1cc(Cc2ccc(-c3ccccc3)cc2)cn2ccnc12
C: Cc1c(Cc2ccc(-c3cnn(C)c3)cc2)cc(C(=O)N[C@H]2CCCC[C@@H]2O)c2ncccc12
D: Cc1c(Cc2ccc(-c3cscn3)cc2)cc(C(=O)N[C@@H]2CCCC[C@H]2O)c2nc[nH]c12
Request: Could you please order the items by EC50, going from the lowest number to the highest? Response format: the labels, sorted as the prompt asks.
Result: C, D, A, B
